- Experimental system: MMP-9 (crude enzyme solution derived from a mouse skin) (Mus musculus)
- Construct: crude enzyme solution derived from a mouse skin; from tissue; host or cells: mouse skin
- Sequence (P41245 108-730): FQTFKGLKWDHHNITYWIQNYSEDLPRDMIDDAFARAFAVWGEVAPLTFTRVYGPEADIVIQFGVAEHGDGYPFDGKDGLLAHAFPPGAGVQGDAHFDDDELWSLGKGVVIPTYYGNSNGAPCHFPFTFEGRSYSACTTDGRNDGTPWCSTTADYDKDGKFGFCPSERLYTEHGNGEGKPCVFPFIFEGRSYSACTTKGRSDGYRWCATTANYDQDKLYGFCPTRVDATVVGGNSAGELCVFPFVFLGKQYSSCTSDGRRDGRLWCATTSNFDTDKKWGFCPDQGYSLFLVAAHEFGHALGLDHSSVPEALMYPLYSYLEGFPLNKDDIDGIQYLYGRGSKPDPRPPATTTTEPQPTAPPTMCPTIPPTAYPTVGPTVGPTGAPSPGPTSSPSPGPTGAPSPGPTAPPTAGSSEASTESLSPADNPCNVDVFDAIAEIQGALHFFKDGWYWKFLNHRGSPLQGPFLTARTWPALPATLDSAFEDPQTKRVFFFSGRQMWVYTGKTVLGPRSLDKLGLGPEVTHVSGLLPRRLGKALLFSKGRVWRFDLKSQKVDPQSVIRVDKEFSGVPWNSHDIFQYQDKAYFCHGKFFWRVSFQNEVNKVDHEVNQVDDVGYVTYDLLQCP
- Test summary: Gelatinase group MMPs inhibition test (gelatin zymography)
- Type: biochemical
- Parameters: key: ⊚: The band disappeared.; ◯: The band was slightly confirmed.; Δ: The band became narrower than control.; X: Unchanged
- Reported conditions: sample solution 100 μM; gel incubated overnight; size of MMP-9 band compared with control solution
Property label: MMPs Inhibition

The following compounds have reported results that may help.
>  <Compound>
CCCCOc1ccc(S(=O)(=O)N2[C@H]3CCC(C3)[C@@H]2C(=O)NO)cc1

>  <MMPs Inhibition>
⊚

$$$$
>  <Compound>
COc1ccc(S(=O)(=O)N2C3CCC(C3)C2C(=O)NO)cc1 (centres unmarked)

>  <MMPs Inhibition>
◯~⊚

$$$$
>  <Compound>
COc1ccc(S(=O)(=O)N2[C@H]3CC[C@H](C3)[C@@H]2C(=O)NO)cc1

>  <MMPs Inhibition>
◯~⊚

$$$$
>  <Compound>
COc1ccc(S(=O)(=O)N2[C@@H]3CC(C(C)(C)C)[C@H](C3)[C@@H]2C(=O)NO)cc1 (some centres unmarked)

>  <MMPs Inhibition>
◯

$$$$
>  <Compound>
COc1ccc(S(=O)(=O)N2C3CCC(CC3)[C@@H]2C(=O)NO)cc1

>  <MMPs Inhibition>
◯~⊚

$$$$
>  <Compound>
O=C(NO)[C@H]1[C@@H]2CC[C@@H](C2)N1S(=O)(=O)c1ccc(Cl)cc1

>  <MMPs Inhibition>
◯

$$$$
>  <Compound>
O=C(NO)[C@H]1[C@@H]2CC[C@@H](C2)N1S(=O)(=O)c1ccc(F)cc1

>  <MMPs Inhibition>
◯

$$$$

Query compound follows.
Query (compound): O=C(NO)[C@H]1[C@@H]2CC[C@@H](C2)N1S(=O)(=O)c1ccccc1 ; field requested: MMPs Inhibition
◯
